System: SK-OV-3
Assay: NCI tumour cell line growth inhibition, 48 h
Activity calls are given as the source filed them. No stated cut-off is given here; in the data, active = GI50 up to about 1.1 µM and inactive = higher.
readoutLabel: GI50

### Prompt Kindly indicate its recorded GI50. Item: "CC(=O)c1ccc(/N=N/c2ccc3nonc3c2N)cc1"
### Response > 100 µM (inactive)

### Prompt Complete the entry with GI50 for "O=C(CC(=O)N(C(=O)c1ccccc1)c1ccc(Cl)cc1)N/N=C\c1ccccc1O"
### Response 17.2 µM (inactive)

### Prompt Note GI50 for the compound shown: C=C(C#N)C1OCC2OC(C)(C)OC21 (stereo unspecified)
### Response 50.6 µM (inactive)

### Prompt Entry CCOC(=O)C(=CNC(Cc1c[nH]c2ccccc12)C(=O)OC)C(=O)OCC (stereo unspecified) needs its GI50 filled in; supply it.
### Response > 100 µM (inactive)

### Prompt State, in one line, measured GI50 of CSC1=C(C#N)C(=O)N(c2ccc(C)cc2)C(=S)C1C#N (stereo unspecified)
### Response > 100 µM (inactive)

### Prompt Please report GI50 for the following compound: "O=C1/C(=C/c2ccccc2)CCCC/C1=C\c1ccccc1"
### Response > 100 µM (inactive)

----------
Test system: DU-145
Test: NCI tumour cell line growth inhibition, 48 h
Activity calls are given as the source filed them. No stated cut-off is given here; in the data, active = GI50 up to about 1.1 µM and inactive = higher.
readoutLabel: GI50

### Prompt Determine its reported GI50: "NNc1ccccc1Cl"
### Response > 100 µM (inactive)

### Prompt Indicate its recorded GI50; the compound in question is "COc1ccc(C)cc1NC(=S)N/N=C/c1ccc(SC)cc1"
### Response 66.8 µM (inactive)

### Prompt Return GI50 for the following compound: COc1cccc(C2c3cc4c(cc3OC(N3CCCCC3)C2C)OCO4)c1OC (stereo not drawn)
### Response 3.64 µM (inactive)

### Prompt Entry "C/C(=N\c1ccc(Cl)cc1)c1ccncc1" needs its GI50 filled in; supply it.
### Response > 100 µM (inactive)

### Prompt Please give the documented GI50 of OC1c2ccccc2CCC1CN1CCN(CCOC(c2ccc(F)cc2)c2ccc(F)cc2)CC1 (stereo not drawn)
### Response 21 µM (inactive)

### Prompt Query GI50 for "CCN(CC)c1c(-c2c(OC(C)C)c(=O)c2=O)c(=O)n2ccsc2c1OC(C)=O"
### Response > 100 µM (inactive)

### Prompt Consider the compound "CCCCNC(=O)C1=C(C)NC(C)=C(C(=O)NCCCC)C1" . State its measured GI50.
### Response > 100 µM (inactive)

### Prompt Indicate its recorded GI50; the compound in question is "CC(=O)N[C@@H](Cc1ccc(O)cn1)C(=O)NCc1ccc(Cl)cc1"
### Response > 100 µM (inactive)

### Prompt Consider the compound "OC[C@H]1NC[C@@H](O)[C@@H](O)[C@H]1O" . State its measured GI50.
### Response > 10 µM (inactive)

### Prompt Look up and report measured GI50 for this entry: "O=C1C=C/C(=N/c2ccccc2)c2ccccc21"
### Response 1.68 µM (inactive)

### Prompt Let me know recorded GI50 for "CN(/N=C\c1ccc2ccccc2c1)C1=NCCCCN1" , thanks.
### Response 54.2 µM (inactive)

### Prompt For the compound "COc1cccc2cc(C(=O)O)c(=O)oc12" , give its measured GI50 value.
### Response > 100 µM (inactive)

### Prompt Output measured GI50 for this item: "Cc1cc2nc(N3C(=O)/C(=C/c4ccccc4S)N=C3c3ccccc3)sc2cc1C"
### Response 58.9 µM (inactive)

### Prompt Check the records and state GI50 for "OCCN1CN(c2nc(N3CN(CCO)C3)nc(N3CN(CCO)C3)n2)C1"
### Response 23.6 µM (inactive)

### Prompt Please indicate GI50 recorded for "Cc1ccc(/C=N/Nc2cc(C)c3cccc(C)c3n2)s1"
### Response 10.5 µM (inactive)

### Prompt Name the recorded GI50 of the compound listed here: "COc1cc2c(c(O)c1OC)C(=O)[C@@H]1CCC(=O)N1C2"
### Response > 100 µM (inactive)

### Prompt Given the compound "O[C@@H]1C[C@H](Cl)c2c(Cl)sc(Cl)c21" , write its reported GI50.
### Response > 100 µM (inactive)

### Prompt Please give the documented GI50 of "COc1ccc(CCNC(=O)c2ccccc2C2c3ccc(OCc4ccccc4)cc3Oc3cc(OCc4ccccc4)ccc32)cc1OC"
### Response > 100 µM (inactive)

### Prompt Please indicate GI50 recorded for "CC1(C)CO[P@@](=S)(c2ccccn2)O[C@@H]1c1ccccc1"
### Response > 100 µM (inactive)

### Prompt Write down GI50 measured for item "CCn1c2nc(=O)n(CCCCCCCCSC(c3ccccc3)(c3ccccc3)c3ccccc3)c(=O)c-2nc2ccccc21"
### Response 90.6 µM (inactive)

### Prompt Let me know recorded GI50 for "N[C@H](C(=O)O)[C@H]1ON=C(Cl)[C@@H]1O" , thanks.
### Response 27.4 µM (inactive)

### Prompt Quote GI50 reported for "CC(C)CN(CC#N)CC(C)C" please.
### Response > 100 µM (inactive)

### Prompt Report measured GI50; entry is "COC(=O)c1c(O)ccc2c1c1c(n2CCc2ccc(OC)c(OC)c2)C(=O)c2ccccc2C1=O"
### Response 15.6 µM (inactive)
